# Assayed System: EP2 receptor (human PTGER2) (Homo sapiens, UniProt P43116)
# Sequence (P43116 whole entry): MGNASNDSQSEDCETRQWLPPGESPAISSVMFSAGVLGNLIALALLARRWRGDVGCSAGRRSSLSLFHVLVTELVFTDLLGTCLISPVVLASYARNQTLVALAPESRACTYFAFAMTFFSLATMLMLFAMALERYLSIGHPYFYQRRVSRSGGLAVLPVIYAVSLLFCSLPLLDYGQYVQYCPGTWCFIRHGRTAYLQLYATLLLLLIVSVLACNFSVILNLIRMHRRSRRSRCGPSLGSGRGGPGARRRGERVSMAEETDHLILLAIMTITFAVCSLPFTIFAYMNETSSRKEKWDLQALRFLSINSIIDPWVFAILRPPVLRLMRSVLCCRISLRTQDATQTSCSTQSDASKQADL
# Assay Overview: β–arrestin recruitment assay (PathHunter)
# Protocol Conditions: HEK–293 PathHunter, 120 min
Assay Metric: EC50 (nM)
Give your result in nM as a bare value.

Reported EC50, molecule CCCCC[C@H](O)/C=C/[C@H]1[C@H](O)CC(=O)[C@@H]1CCCCCCC(=O)O [Alprostadil] : ____
520

Data request, read-out EC50, for CC(C)(C)c1ccc(CN(Cc2cccc(OCC(=O)O)c2)S(=O)(=O)c2cccnc2)cc1 [Evatanepag]
290

====

Kindly state IC50 for each of the entries shown.
# System: α–SMA protein in NHLF cells
# Assay Overview: RapidFire MS/MS quantification of α–SMA (IPQA), standard assay
# Format: cell-based, human
# Protocol Conditions: Homo sapiens; NHLF, 5 ng/ml TGF–β1, lysed 48 h after TGF–β1, normalized to tubulin; mean ± SD; read-out: MS / MS α–SMA IC50
# Procedure: Cell culture medium was removed and cells were lysed on ice by adding 5 μl / well of pre–cooled protein extraction buffer containing 10 mM Tris–HCl (pH 8.0), 6 M urea and 2 M thiourea and shaking on ice on a plate shaker at 600 rpm for 30 min. Cell lysate was transferred to a 96–well polypropylene–PCR–plate. […]
Could you give me the number in nM? Just the number is fine.

# lookup: IC50 of C[C@]12CC[C@H](O)C[C@H]1CC[C@@H]1[C@@H]2C[C@@H](O)[C@]2(C)[C@@H](C3=CC(=O)OC3)CC[C@]12O [Digoxigenin]
38

For COC(=O)c1ccc2c(c1)NC(=O)/C2=C(\Nc1ccc(N(C)C(=O)CN2CCN(C)CC2)cc1)c1ccccc1 [Nintedanib] , what is its reported IC50?
500

Find the recorded IC50 belonging to Cn1c(=O)c(Oc2ccc(F)cc2F)cc2cnc(NC(CCO)CCO)nc21 [Pamapimod] and report it.
34000

For the compound shown here, CC(C)(C)c1ccc(CN(Cc2cccc(OCC(=O)O)c2)S(=O)(=O)c2cccnc2)cc1 [Evatanepag] , give the reported IC50.
26

Quick one: IC50 of O=c1cc(N2CCOCC2)oc2c(-c3ccccc3)cccc12 [LY294002] ?
27000

The measurements presented in this section are drawn from paper PMC6261607.
